# Assay Target: MASP-2 (CCP1-CCP2-SP) (Homo sapiens (Human), UniProt O00187)
# Sequence (O00187 445-686): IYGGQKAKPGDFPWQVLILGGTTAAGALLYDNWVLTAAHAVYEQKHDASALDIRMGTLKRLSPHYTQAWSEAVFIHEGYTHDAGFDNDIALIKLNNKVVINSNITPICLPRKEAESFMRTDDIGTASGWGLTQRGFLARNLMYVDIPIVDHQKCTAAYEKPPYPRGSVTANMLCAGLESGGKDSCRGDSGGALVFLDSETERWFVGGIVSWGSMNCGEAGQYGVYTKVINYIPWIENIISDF
# Procedure Details: biochemical
# Assay type: biochemical
# Setup Conditions: selectivity for MASP-2 inhibition versus thrombin
Counter-ions that a name gives are not always drawn.
Assay Readout: MASP-2 vs. thrombin selectivity

* Cc1nc(N)ccc1CNC(=O)[C@H](C)NC(=O)[C@H]1C[C@H](Cc2cccc(C(=O)N3CCC3)c2)CN1 [compound 1420, Di-trifluoroacetate salt] | **** (≥100-fold)
* Cc1cc(Cl)cc(CNC(=O)[C@H](C)NC(=O)[C@H]2C[C@@H](Cc3ccccc3)CCN2)c1O [compound 1363, Hydrochloride] | **** (≥100-fold)
* C[C@H](NC(=O)[C@H]1C[C@H](Cc2ccc(F)c(Cl)c2)CN1)C(=O)NCc1cc2cnccc2[nH]1 [compound 1494, Di-trifluoroacetate salt] | **** (≥100-fold)
